These data points were gathered from patent US7408024B2.

Where a SMILES comes first, the peptide text is derived from it. Bridges are numbered along the chain shown (N, C = ends). [ ]: non-standard residue; d: D form. Phe(4-Cl) = N[C@@H](Cc1ccc(Cl)cc1)C(=O)O; 2Nal = N[C@@H](Cc1ccc2ccccc2c1)C(=O)O; NMeT = CN[C@H](C(=O)O)[C@@H](C)O; 3Pal = N[C@@H](Cc1cccnc1)C(=O)O; NMeK = CN[C@@H](CCCCN)C(=O)O; NMeC = CN[C@@H](CS)C(=O)O
I'd be grateful if you could share measured pKi for these entries.
Keep it numeric: pKi is minus log10 of the concentration in mol/L.

Input: Param readout= pKi; system= hsst3 (Homo sapiens); entry= C[C@@H](O)[C@H]1C(=O)N[C@H](C(=O)N[C@@H](Cc2ccc3ccccc3c2)C(N)=O)CSSC[C@@H](NC(=O)[C@@H](N)Cc2ccc(Cl)cc2)C(=O)N[C@@H](Cc2cccnc2)C(=O)N[C@H](Cc2c[nH]c3ccccc23)C(=O)N[C@@H](CCCCN)C(=O)N1C [Peptide 6] (H-[Phe(4-Cl)][dC][3Pal][dW]K[NMeT]C[2Nal]-NH2; disulfide 2-7) ; returns value.
Output: 6.50

Input: What is its pKi for hsst3 (Homo sapiens)? Entry: C[C@@H](O)[C@@H]1NC(=O)[C@H](CCCCN)NC(=O)[C@@H](Cc2c[nH]c3ccccc23)NC(=O)[C@H](Cc2cccnc2)NC(=O)[C@H](NC(=O)[C@@H](N)Cc2ccc(Cl)cc2)CSSC[C@@H](C(=O)N[C@@H](Cc2ccc3ccccc3c2)C(N)=O)N(C)C1=O [Peptide 7] (H-[Phe(4-Cl)][dC][3Pal][dW]KT[NMeC][2Nal]-NH2; disulfide 2-7)
Output: 7.16

Input: Query the reported pKi for hsst3 (Homo sapiens); item: C[C@@H](O)[C@@H]1NC(=O)[C@H](CCCCN)N(C)C(=O)[C@@H](Cc2c[nH]c3ccccc23)NC(=O)[C@H](Cc2cccnc2)NC(=O)[C@H](NC(=O)[C@@H](N)Cc2ccc(Cl)cc2)CSSC[C@@H](C(=O)N[C@H](Cc2c[nH]c3ccccc23)C(N)=O)NC1=O [Peptide 14] (H-[Phe(4-Cl)][dC][3Pal][dW][NMeK]TC[dW]-NH2; disulfide 2-7)
Output: 7.04

###

The reader will find pKi measurements below, all made with UniProtKB P30872.
Sequence (P30872 whole entry): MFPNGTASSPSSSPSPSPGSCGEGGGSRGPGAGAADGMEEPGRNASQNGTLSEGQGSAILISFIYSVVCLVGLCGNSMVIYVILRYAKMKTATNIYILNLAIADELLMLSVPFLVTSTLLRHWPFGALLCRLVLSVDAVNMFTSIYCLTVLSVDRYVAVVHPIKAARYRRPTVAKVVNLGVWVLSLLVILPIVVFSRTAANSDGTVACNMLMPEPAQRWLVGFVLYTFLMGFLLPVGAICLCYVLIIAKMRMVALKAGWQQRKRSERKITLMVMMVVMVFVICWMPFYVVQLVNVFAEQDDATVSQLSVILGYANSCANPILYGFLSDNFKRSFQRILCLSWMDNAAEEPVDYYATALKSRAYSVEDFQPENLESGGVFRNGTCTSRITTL
Where a SMILES comes first, the peptide text is derived from it. Bridges are numbered along the chain shown (N, C = ends). [ ]: non-standard residue; d: D form. Phe(4-Cl) = N[C@@H](Cc1ccc(Cl)cc1)C(=O)O; 2Nal = N[C@@H](Cc1ccc2ccccc2c1)C(=O)O; NMeT = CN[C@H](C(=O)O)[C@@H](C)O; 3Pal = N[C@@H](Cc1cccnc1)C(=O)O; NMeK = CN[C@@H](CCCCN)C(=O)O; dNMeC = CN[C@H](CS)C(=O)O
The value called pKi is obtained by taking minus log10 of the concentration in mol/L.

Input: What value of pKi on UniProtKB P30872 does C[C@@H](O)[C@@H]1NC(=O)[C@H](CCCCN)N(C)C(=O)[C@@H](Cc2c[nH]c3ccccc23)NC(=O)[C@H](Cc2cccnc2)NC(=O)[C@H](NC(=O)[C@@H](N)Cc2ccc3ccccc3c2)CSSC[C@@H](C(=O)N[C@H](Cc2c[nH]c3ccccc23)C(N)=O)NC1=O [Peptide 15] (H-[2Nal][dC][3Pal][dW][NMeK]TC[dW]-NH2; disulfide 2-7) have?
Output: 6.00

Input: # query: pKi | item CNC(=O)[C@H](Cc1ccc2ccccc2c1)NC(=O)[C@@H]1CSSC[C@@H](N(C)C(=O)[C@@H](N)Cc2ccc(Cl)cc2)C(=O)N[C@@H](Cc2cccnc2)C(=O)N[C@H](Cc2c[nH]c3ccccc23)C(=O)N[C@@H](CCCCN)C(=O)N[C@@H]([C@@H](C)O)C(=O)N1 [Peptide 2] (H-[Phe(4-Cl)][dNMeC][3Pal][dW]KTC[2Nal]-NHMe; disulfide 2-7) | system: UniProtKB P30872
Output: 6.00

Input: Under UniProtKB P30872: pKi value of C[C@@H](O)[C@H]1C(=O)N[C@H](C(=O)N[C@@H](Cc2ccc3ccccc3c2)C(N)=O)CSSC[C@@H](NC(=O)[C@@H](N)Cc2ccc(Cl)cc2)C(=O)N[C@@H](Cc2cccnc2)C(=O)N[C@H](Cc2c[nH]c3ccccc23)C(=O)N[C@@H](CCCCN)C(=O)N1C [Peptide 6] (H-[Phe(4-Cl)][dC][3Pal][dW]K[NMeT]C[2Nal]-NH2; disulfide 2-7) ?
Output: 6.40

###

Where a SMILES comes first, the peptide text is derived from it. Bridges are numbered along the chain shown (N, C = ends). [ ]: non-standard residue; d: D form. Phe(4-Cl) = N[C@@H](Cc1ccc(Cl)cc1)C(=O)O; dNMeW = CN[C@H](Cc1c[nH]c2ccccc12)C(=O)O; 2Nal = N[C@@H](Cc1ccc2ccccc2c1)C(=O)O; 3Pal = N[C@@H](Cc1cccnc1)C(=O)O; NMeC = CN[C@@H](CS)C(=O)O
As an illustration, consider measured Ki for compounds on UniProtKB P30874.
Sequence (P30874 whole entry): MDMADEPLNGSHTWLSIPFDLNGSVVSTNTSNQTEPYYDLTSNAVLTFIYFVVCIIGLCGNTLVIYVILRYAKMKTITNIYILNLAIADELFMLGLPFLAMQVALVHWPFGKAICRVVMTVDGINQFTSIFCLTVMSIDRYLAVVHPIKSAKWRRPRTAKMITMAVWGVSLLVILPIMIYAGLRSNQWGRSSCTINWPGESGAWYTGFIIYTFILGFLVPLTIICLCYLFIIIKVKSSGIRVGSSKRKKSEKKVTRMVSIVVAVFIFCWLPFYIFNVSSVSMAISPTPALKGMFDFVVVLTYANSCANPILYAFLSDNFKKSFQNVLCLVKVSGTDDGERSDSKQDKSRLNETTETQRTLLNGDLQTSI
Give your result in nM as a bare value.

Input: Which Ki value is on record for C[C@@H](O)[C@@H]1NC(=O)[C@H](CCCCN)NC(=O)[C@@H](Cc2c[nH]c3ccccc23)NC(=O)[C@H](Cc2cccnc2)NC(=O)[C@H](NC(=O)[C@@H](N)Cc2ccc(Cl)cc2)CSSC[C@@H](C(=O)N[C@@H](Cc2ccc3ccccc3c2)C(N)=O)NC1=O [Peptide 9] ?
Output: 12.1

Input: Return reported Ki; argument: C[C@@H](O)[C@@H]1NC(=O)[C@H](CCCCN)NC(=O)[C@@H](Cc2c[nH]c3ccccc23)NC(=O)[C@H](Cc2cccnc2)NC(=O)[C@H](NC(=O)[C@@H](N)Cc2ccc(Cl)cc2)CSSC[C@@H](C(=O)N[C@@H](Cc2ccc3ccccc3c2)C(N)=O)N(C)C1=O [Peptide 7] (H-[Phe(4-Cl)][dC][3Pal][dW]KT[NMeC][2Nal]-NH2; disulfide 2-7)
Output: 810

Input: So what's the measured Ki for this one? C[C@@H](O)[C@@H]1NC(=O)[C@H](CCCCN)NC(=O)[C@@H](Cc2c[nH]c3ccccc23)N(C)C(=O)[C@H](Cc2cccnc2)NC(=O)[C@H](NC(=O)[C@@H](N)Cc2ccc(Cl)cc2)CSSC[C@@H](C(=O)N[C@@H](Cc2ccc3ccccc3c2)C(N)=O)NC1=O [Peptide 4] (H-[Phe(4-Cl)][dC][3Pal][dNMeW]KTC[2Nal]-NH2; disulfide 2-7)
Output: 51.8

###

- target under test: hsst3 (Homo sapiens)
Where a SMILES comes first, the peptide text is derived from it. Bridges are numbered along the chain shown (N, C = ends). [ ]: non-standard residue; d: D form. Phe(4-Cl) = N[C@@H](Cc1ccc(Cl)cc1)C(=O)O; 2Nal = N[C@@H](Cc1ccc2ccccc2c1)C(=O)O; 3Pal = N[C@@H](Cc1cccnc1)C(=O)O; NMeK = CN[C@@H](CCCCN)C(=O)O; dNMeC = CN[C@H](CS)C(=O)O
parameter: Ki (µM)
Record the value in µM, omitting the unit from your answer.

Input: Returns the measured Ki for the input compound. Input: C[C@@H](O)[C@@H]1NC(=O)[C@H](CCCCN)N(C)C(=O)[C@@H](Cc2c[nH]c3ccccc23)NC(=O)[C@H](Cc2ccc(O)cc2)NC(=O)[C@H](NC(=O)[C@@H](N)Cc2ccc(Cl)cc2)CSSC[C@@H](C(=O)N[C@@H](Cc2ccc3ccccc3c2)C(N)=O)NC1=O [Peptide 12] (H-[Phe(4-Cl)][dC]Y[dW][NMeK]TC[2Nal]-NH2; disulfide 2-7)
Output: 0.115

Input: Which Ki value belongs to CNC(=O)[C@H](Cc1ccc2ccccc2c1)NC(=O)[C@@H]1CSSC[C@@H](N(C)C(=O)[C@@H](N)Cc2ccc(Cl)cc2)C(=O)N[C@@H](Cc2cccnc2)C(=O)N[C@H](Cc2c[nH]c3ccccc23)C(=O)N[C@@H](CCCCN)C(=O)N[C@@H]([C@@H](C)O)C(=O)N1 [Peptide 2] (H-[Phe(4-Cl)][dNMeC][3Pal][dW]KTC[2Nal]-NHMe; disulfide 2-7) ?
Output: 0.576

###

For each entry below, report its pKi value.
Where a SMILES comes first, the peptide text is derived from it. Bridges are numbered along the chain shown (N, C = ends). [ ]: non-standard residue; d: D form. Phe(4-Cl) = N[C@@H](Cc1ccc(Cl)cc1)C(=O)O; 2Nal = N[C@@H](Cc1ccc2ccccc2c1)C(=O)O; 3Pal = N[C@@H](Cc1cccnc1)C(=O)O; NMeK = CN[C@@H](CCCCN)C(=O)O
// field semantics: pKi = negative decimal log of concentration (mol/L)

Input: Give pKi (hsst3 (Homo sapiens, UniProt P32745)) of the following compound: C[C@@H](O)[C@@H]1NC(=O)[C@H](CCCCN)N(C)C(=O)[C@@H](Cc2c[nH]c3ccccc23)NC(=O)[C@H](Cc2cccnc2)NC(=O)[C@H](NC(=O)[C@@H](N)Cc2cccnc2)CSSC[C@@H](C(=O)N[C@H](Cc2c[nH]c3ccccc23)C(N)=O)NC1=O [Peptide 16] (H-[3Pal][dC][3Pal][dW][NMeK]TC[dW]-NH2; disulfide 2-7)
Output: 6.27

Input: Return pKi measured with hsst3 (Homo sapiens, UniProt P32745) given this compound: C[C@@H](O)[C@@H]1NC(=O)[C@H](CCCCN)N(C)C(=O)[C@@H](Cc2c[nH]c3ccccc23)NC(=O)[C@H](Cc2cccnc2)NC(=O)[C@H](NC(=O)[C@@H](N)Cc2ccc(Cl)cc2)CSSC[C@@H](C(=O)N[C@@H](Cc2ccc3ccccc3c2)C(N)=O)NC1=O [Peptide 5] (H-[Phe(4-Cl)][dC][3Pal][dW][NMeK]TC[2Nal]-NH2; disulfide 2-7)
Sequence (P32745 whole entry): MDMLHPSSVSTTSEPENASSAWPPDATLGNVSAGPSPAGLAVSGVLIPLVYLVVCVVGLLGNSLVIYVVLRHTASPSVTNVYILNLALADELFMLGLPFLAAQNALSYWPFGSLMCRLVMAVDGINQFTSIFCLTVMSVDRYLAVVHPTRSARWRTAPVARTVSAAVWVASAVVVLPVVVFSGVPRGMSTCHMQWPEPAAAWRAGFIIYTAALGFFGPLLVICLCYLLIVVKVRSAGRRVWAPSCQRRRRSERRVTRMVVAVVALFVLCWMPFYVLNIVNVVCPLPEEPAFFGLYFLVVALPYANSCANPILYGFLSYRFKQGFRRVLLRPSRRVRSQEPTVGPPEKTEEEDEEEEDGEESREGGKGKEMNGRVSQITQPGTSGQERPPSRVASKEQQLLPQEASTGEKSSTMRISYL
Output: 7.18
